- assayProcedure: yeast display, Sf9 membrane polyspecificity reagent, FACS + sequencing; frameworks hold sequencing errors
assayMetric: polyreactivity (PSR sort gate)

// known answers, use as guide
QVQLVESGGGLVQAGGSLRLSCAASGSTIYNYAMGWYRQATGKERELVAVISRSGGRTYYADSVKGRFTISRDNAKNTVYLQMNSLKPEDTAVYYCAADTYRGYDFDYWGQGTQVTVSS | high polyreactivity
QVQLVESGGGLVQAGGSLRLSCAASGSTYDIYAMGWYRQAPGKEREKVAAISWSGGSTHYADSVKGRFTISRDNAKNTVFFQMNSLKPEDTAVYYCAAVGRLWSLWRTKSYNYWGQGTEVTVSS | low polyreactivity
QVQLVESGGGLVQAGGSLRLSCAASGSTFTSNAMGWYRQAPGKERELVAAISSGGSTSYADSVKGRFSISRDNAKNTVYLQMNSLKPEDTAVYYCAVGVLYAGYFYRYRYYYWGQGTQVTVSS | high polyreactivity
QVQLVESGGGLVQAGGSLRLSCAASGRTFIGYAMGWYRQAPGKERELVAAISRGGSTKYADSVKGRFTISRDNAKNTVYLQMNSLKPEDTAVYYCAVGWSYYAGLRHRYYSGFDYWGQGTQVTLSS | low polyreactivity

Documented polyreactivity (PSR sort gate) of QVQLVESGRGLVQAGGSLRLSCAASGSTFGGYAMGWYRQAPGKERELVAAISGSGVRTYYADSVKGRFTISRDNAKNTVYLQMNSLKPEDTAVYYCAKRVRYPGDRYYYWGQGTQVTLSS : high polyreactivity
